B1: scFv; the commonest letter at each place (parent)
chain 1: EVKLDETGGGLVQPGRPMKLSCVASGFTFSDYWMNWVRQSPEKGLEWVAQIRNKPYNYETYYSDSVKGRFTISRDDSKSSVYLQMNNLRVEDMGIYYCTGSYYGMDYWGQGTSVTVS
chain 2: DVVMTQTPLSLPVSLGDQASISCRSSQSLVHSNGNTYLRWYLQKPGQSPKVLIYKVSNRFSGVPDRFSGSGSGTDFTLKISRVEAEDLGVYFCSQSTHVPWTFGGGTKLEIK

# Variants of: B1
# Assay info: Kd (Tite-Seq)
# Study conditions: with fluorescein; format: scFv 4-4-20, heavy + light
Assay metric: Kd

Worked examples, 10 variants total:
chain 1 W33E = ≥ 10 µM
chain 1 G100V G104F = ≥ 10 µM
chain 1 T28L S30C = 0.00158 µM
chain 1 F29P Y32A = 2.47 µM
chain 1 S30P N35L = ≥ 10 µM
chain 1 Y102Q Y103T = ≥ 10 µM
chain 1 S30V = 0.000743 µM
chain 1 Y102K Y103D = 0.0132 µM
chain 1 M105T Y107N = ≥ 10 µM
chain 1 G109M = ≥ 10 µM

Input line: May I ask what Kd has been recorded for chain 1 T28V Y32S V37F ?
Output line: ≥ 10 µM

Input line: May I ask what Kd has been recorded for chain 1 G100N ?
Output line: ≥ 10 µM
